# run conditions: pH 2.7
Marks after values point to notes of the source that are not given here.
Field: LogP. Provide a value for each of the compounds that follow.

Hey, can you go through the list below and give me LogP for every item?
1. CCCC(C)C(=O)Nc1cccc(CO/N=C(/c2ccccc2F)c2noc(=O)n2C)n1 (stereo not drawn)
2. Cn1c(/C(=N\OCc2cccc(NC(=O)C3(c4ccc(Cl)cc4Cl)CC3)n2)c2ccccc2)noc1=O
3. Cc1ccc(OC(C)C(=O)Nc2nc(CO/N=C(/c3ccccc3)c3noc(=O)n3C)cs2)cc1 (stereo not drawn)
4. COc1ccccc1CCOC(=O)Nc1cccc(CO/N=C(/c2ccccc2)c2noc(=O)n2C)n1

Return:
1. 3.73 [a]
2. 4.96 [a]
3. 4.02 [a]
4. 4.31 [a]

The following compounds each have a reported value; give each one's LogP.
1. Cc1ccc(/C(=N/OCc2csc(NC(=O)C(C)Oc3ccccc3)n2)c2noc(=O)n2C)cc1 (stereo not drawn)
2. Cn1c(/C(=N\OCc2csc(NC(=O)COc3cccc(Br)c3)n2)c2ccccc2)noc1=O
3. Cn1c(/C(=N\OCc2csc(NC(=O)c3ccccc3F)n2)c2ccccc2)noc1=O
4. Cn1c(C(=NOCc2cccc(NC(=O)OCCCc3cccnc3)n2)c2ccccc2)noc1=O

Return:
1. 3.99 [a]
2. 3.94 [a]
3. 3.44 [a]
4. 2.11 [a]

Hi there! I need LogP for each item below, if you can.
1. C=CCC#CCCOC(=O)Nc1cccc(CO/N=C(/c2ccccc2)c2noc(=O)n2C)n1
2. COc1ccc(C(=NOCc2cccc(NC(=O)OC(C)(C)C)n2)c2noc(=O)n2C)cc1
3. CC(C)CCCOC(=O)Nc1cccc(CO/N=C(/c2ccccc2)c2noc(=O)n2C)n1
4. Cn1c(/C(=N\OCc2cccc(NC(=O)OC[Si](C)(C)C)n2)c2ccccc2)noc1=O
5. CCCCOC(=S)Nc1cccc(CO/N=C(/c2ccccc2)c2noc(=O)n2C)n1
6. Cn1c(/C(=N\OCc2cccc(NC(=O)OCc3ccc([N+](=O)[O-])cc3)n2)c2ccccc2)noc1=O
7. Cn1c(/C(=N\OCc2cccc(NC(=O)c3ccc(Cl)c(Cl)c3)n2)c2ccccc2)noc1=O
8. Cn1c(/C(=N\OCc2cccc(NC(=O)OCC3CCOC3)n2)c2ccccc2)noc1=O (stereo not drawn)

Return:
4.01 [a]
3.96 [a]
4.81 [a]
4.53 [a]
4.53 [a]
3.83 [a]
4.54 [a]
2.98 [a]

Look at each compound and report its LogP.
1. CCOCCC(=O)Nc1cccc(CO/N=C(/c2ccccc2)c2noc(=O)n2C)n1
2. CC(OC(=O)Nc1cccc(CO/N=C(/c2ccccc2)c2noc(=O)n2C)n1)C(C)(C)C (stereo not drawn)
3. Cn1c(/C(=N\OCc2cccc(NC(=O)OCCCC3CCCC3)n2)c2ccccc2)noc1=O
4. COc1ccc(CCOC(=O)Nc2cccc(CO/N=C(/c3ccccc3)c3noc(=O)n3C)n2)cc1
5. CCOCC(C)OC(=O)Nc1cccc(CO/N=C(/c2ccccc2)c2noc(=O)n2C)n1 (stereo not drawn)
6. Cn1c(C(=NOCc2cccc(NC(=O)CCCC(C)(C)C)n2)c2ccccc2)noc1=O
7. C=CCCOC(=O)Nc1nc(CO/N=C(/c2ccccc2)c2noc(=O)n2C)cs1
8. C#CCC(C)(C)OC(=O)Nc1cccc(CO/N=C(/c2ccccc2)c2noc(=O)n2C)n1

Return:
2.96 [a]
4.56 [a]
5.31 [a]
4.08 [a]
3.53 [a]
4.53 [a]
3.44 [a]
3.94 [a]

The measurements presented in this section are drawn from patent US9090600B2.
